The origin of these recorded values is PubChem BioAssay (NCATS).

Experiment: Quantitative highthroughput screen to assess conditional lethalithy of P12 Ichikawa cells grown in RPMI1640 with untreated serum (RPMI+s) (AID 1963881); also: nearly all actives have a fitted effect of over 35% in size;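 as to viability: 100% = DMSO wells and 0% = empty wells without cells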
Conditions: ATP luminescence, 48 h; viability; series mostly up to 45.8 µM
Results filed as inconclusive are left out. The source made the active and inactive calls. Calls follow the shape of the dose curve; as a rule, active = well fitted cell-killing curve with a large enough effect; inconclusive = small, poorly fitted or top-dose-only effect; inactive = flat fitted curve, though single readings scatter.
Would you mind answering with one of these outcomes? active, inactive

Worked examples follow.
Compound: CN[C@H]1[C@@H](O)[C@@H]2O[C@@H]3O[C@H](C)CC(=O)[C@]3(O)O[C@@H]2[C@@H](NC)[C@H]1O
Class Assignment: inactive
--
Compound: O=P(O)(O)C(O)(Cn1ccnc1)P(=O)(O)O
Class Assignment: inactive
--
Compound: CN1CCN(c2ccc(C(=O)Nc3n[nH]c4ccc(Cc5cc(F)cc(F)c5)cc34)c(NC3CCOCC3)c2)CC1
Class Assignment: active

Q: Could you please tell me the result logged for O=C(Nc1nc2ccccc2n1CCN1CCOCC1)c1cccc([N+](=O)[O-])c1 in this assay?
Result: inactive

Q: Could you please tell me the result logged for CN1CCN(Cc2ccc(NC(=O)Nc3ccc(Oc4cc(NC(=O)C5CC5)ncn4)cc3)cc2C(F)(F)F)CC1 in this assay?
Result: active

---

Experiment: Viability qHTS for spleen associated tyrosine kinase inhibitor (SYKi) drug resistant MV4-11 cells (AID 1963824); also: nearly all actives have a fitted effect of over 35% in size
Settings: SYKi-resistant MV4-11 viability, CellTiter-Glo, 72 h; series mostly up to 45 µM
Records with an inconclusive call do not appear. The source made the active and inactive calls. The call rests on the fitted dose curve; in most records, active means well fitted cell-killing curve with a large enough effect; inconclusive means small, poorly fitted or top-dose-only effect, or effect the other way; inactive means no such curve, though single readings can be large or run the other way.
Would you mind answering with one of these outcomes? yes (1) = active, no (0) = inactive

Worked examples follow.
Compound: FC(F)(F)c1ccc(Nc2nc3ccc(Oc4ccnc(-c5ncc(C(F)(F)F)[nH]5)c4)cc3[nH]2)cc1
Class Assignment: yes (1)

Compound: CC(C)(O)C1CCC(C)(C2CCC3(C)C4CCC5C(C)(C(=O)OC6OC(CO)C(O)C(O)C6O)C(O)CC(O)C56CC46CCC23C)O1 (stereo not drawn)
Class Assignment: no (0)

Compound: CCOc1cn(-c2ccc(F)cc2C)nc1C(=O)Nc1ccc(Oc2ccnc3cc(OC)c(OC)cc23)c(F)c1
Class Assignment: yes (1)

Compound: C[C@@H](Oc1ccc2[nH]nc(/C=C/c3cnn(CCO)c3)c2c1)c1c(Cl)cncc1Cl
Class Assignment: yes (1)

Compound: O=C1CCCC2=C1C(c1ccncc1Br)N=C(Nc1nc3ccccc3o1)N2 (stereo not drawn)
Class Assignment: yes (1)

Compound: CCN(Cc1cc(Nc2nc(C)cn3c(-c4cn[nH]c4)cnc23)sn1)C(C)(C)CO
Class Assignment: yes (1)

Q: Could you please tell me the result logged for CC1OC2OC(=O)C3(C)CC4=C(CO)C5=C(CC(=O)C4(C)C(C1=O)C23)C(C)(C)OC(=O)C5 (stereo not drawn) in this assay?
Result: no (0)

Q: Could you please tell me the result logged for CC(C)(CNC(=O)c1cccc(-c2noc(C(F)(F)F)n2)c1)c1coc(-c2ccccc2)n1 in this assay?
Result: yes (1)

---

Test: Viability qHTS for spleen associated tyrosine kinase inhibitor (SYKi) naive MV4-11 cells (AID 1963823); also: nearly all actives have a fitted effect of over 40% in size
Details: MV4-11 AML viability, CellTiter-Glo luminescence, 72 h; series mostly up to 45 µM
Results filed as inconclusive are left out. Active and inactive are the calls of the source. Calls come from the whole dose curve; as a rule, active = well fitted cell-killing curve with a large enough effect; inconclusive = small, poorly fitted or top-dose-only effect, or effect the other way; inactive = no such curve, though single readings can be large or run the other way.
Would you mind answering with one of these outcomes? active, inactive

Worked examples follow.
Molecule: CC(CO[C@@H]1O[C@H](COC(=O)/C=C/c2ccc(O)c(O)c2)[C@@H](O)[C@H](O)[C@H]1O)C1(O)COC(=O)C1 (stereo not given in full)
Class Assignment: inactive
//
Molecule: N[C@@H](CC(=O)N1CCn2c(nnc2C(F)(F)F)C1)Cc1[nH]nc2c(F)c(F)ccc12
Class Assignment: inactive
//
Molecule: C[C@@H]1CCN(C(=O)[C@H](CCCN=C(N)N)NS(=O)(=O)c2cccc3c2NC[C@H](C)C3)[C@@H](C(=O)O)C1
Class Assignment: inactive
//
Molecule: Oc1cc(CNC(=S)/C=C/c2cc(O)c(O)c(Br)c2)cc(O)c1O
Class Assignment: active
//
Molecule: CC(=O)O[C@@H]1[C@H]2[C@@H](OC(=O)c3ccccc3)[C@@H](C)C[C@]2(O)[C@H](OC(C)=O)[C@@]2(C)[C@@H]3CC(C)(C)C(=O)[C@]3(OC(C)=O)C[C@@]12C
Class Assignment: inactive

Q: Could you please tell me the result logged for NC(=O)C1(N2CCCCC2)CCN(CCCC(=O)c2ccc(F)cc2)CC1 in this assay?
Result: inactive

Q: Could you please tell me the result logged for CC(C)(C)c1ccc(S(=O)(=O)Nc2ccc(-n3ccnc3)cc2)cc1 in this assay?
Result: active

Q: Could you please tell me the result logged for CO[C@@H]1[C@@H](OC)[C@H](C)[C@@](O)(CC(=O)O)O[C@H]1[C@H](C)[C@H]1O[C@@]2(CC[C@@](C)([C@H]3CC[C@@](C)([C@@H]4O[C@@H]([C@H]5O[C@](C)(O)[C@H](C)C[C@@H]5C)C[C@@H]4OC4C[C@H](OC)[C@@H](OC)[C@H](C)O4)O3)O2)C[C@H](O)[C@H]1C (stereo not given in full) in this assay?
Result: active

Q: Could you please tell me the result logged for CC(=O)Nc1ccc(OCCOCCOc2ccc(NC(C)=O)cc2)cc1 in this assay?
Result: inactive

Q: Could you please tell me the result logged for COc1ccc2c(c1)O[C@H](O[C@@H]1O[C@H](CO)[C@@H](O)[C@H](O)[C@H]1O)C(=O)N2 in this assay?
Result: inactive

Q: Could you please tell me the result logged for C=C(C)[C@@H]1CC[C@]2(C)CC[C@]3(C)[C@H](CC[C@@H]4[C@@]5(C)CC[C@H](O)C(C)(C)[C@H]5CC[C@]43C)[C@@H]12 in this assay?
Result: inactive

Q: Could you please tell me the result logged for Cc1cccc(C)c1NC(=O)CC12CCCN1CCC2 in this assay?
Result: inactive

Q: Could you please tell me the result logged for COc1cc2nccc(Oc3ccc(NC(=O)Nc4ccc(F)cc4F)c(F)c3)c2cc1OC in this assay?
Result: active

Q: Could you please tell me the result logged for CC/C=C\C[C@H]1C(=O)C=C[C@@H]1CCCCCCCC(=O)O in this assay?
Result: active

Q: Could you please tell me the result logged for CN1c2c(nc(N)[nH]c2=O)NC[C@@H]1CNc1ccc(C(=O)N[C@@H](CCC(=O)O)C(=O)O)cc1 in this assay?
Result: inactive

Q: Could you please tell me the result logged for COc1ccc(Cl)cc1[C@@]1(F)C(=O)Nc2cc(C(F)(F)F)ccc21 in this assay?
Result: active

Q: Could you please tell me the result logged for COc1cc(OC)cc(-c2ccc3c(-c4ccc(F)cc4)[nH]nc3n2)c1 in this assay?
Result: inactive

Q: Could you please tell me the result logged for COc1cc(/C=C/CO)ccc1O[C@@H]1O[C@H](CO)[C@@H](O)[C@H](O)[C@H]1O in this assay?
Result: inactive

Q: Could you please tell me the result logged for Fc1ccc(CNc2ncnc3ccc(F)cc23)cc1 in this assay?
Result: active

---

Experiment: Cellular viability qHTS for adrenocortical cancer (ACC) cell line SW-13 (AID 1963989);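 also: cells grown in serum-free medium with ITS supplement; % is scaled to controls: 0 for no effect and ±100 for the full control effect; nearly all actives have a fitted effect of over 65% in size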
Conditions: SW-13 ACC cells viability, CellTiter-Glo, 48 h; stronger effect = lower value
Results filed as inconclusive are left out.
Reported activity (max response) by item:
// note: answer is a bare numeric in %

Solved entries:
Compound: CN/C(=C\[N+](=O)[O-])NCCSCc1csc(CN(C)C)n1
activity (max response) / %: 7.35
//
Compound: C=CC(=O)N1CCC(CNc2ncnc(N)c2-c2ccc(Oc3ccccc3)cc2)CC1
activity (max response) / %: -22.9
//
Compound: C[C@H](NC(=O)[C@@H](O)c1cc(F)cc(F)c1)C(=O)N[C@@H]1C(=O)N(C)c2ccccc2-c2ccccc21
activity (max response) / %: -11.3
//
Compound: OC(CCN1CCCCC1)(c1ccccc1)c1ccccc1
activity (max response) / %: 3.2
//
Compound: CC(=O)Nc1ccn(C2COC(COC(=O)c3ccccc3)O2)c(=O)n1 (stereo not given)
activity (max response) / %: -9.44
//
Compound: N=C(N)c1ccc2nc(-c3cc(CC(=O)N[C@@H](CC(=O)O)C(=O)O)cc(-c4cc(S(N)(=O)=O)ccc4O)c3O)[nH]c2c1
activity (max response) / %: 10.3

compound CC(CNC1CCCCC1)OC(=O)c1ccccc1 (stereo not given) , activity (max response) observed: -5.58

compound O=C(O)CNC(=O)c1ccccc1 , activity (max response) observed: 6.31

compound COc1ccc2cccc(CCNC(C)=O)c2c1 , activity (max response) observed: 13

compound C[C@H](CCC(=O)O)[C@H]1CCC2C3C[C@H](O)[C@@H]4C[C@H](O)CC[C@]4(C)C3CC[C@@]21C (stereo not given in full) , activity (max response) observed: 1.86

---

Assay: Viability qHTS for spleen associated tyrosine kinase inhibitor (SYKi) drug resistant MV4-11 cells (AID 1963824); also: nearly all actives have a fitted effect of over 35% in size
Conditions: SYKi-resistant MV4-11 viability, CellTiter-Glo, 72 h; series mostly up to 45 µM
Inconclusive results are not listed. Active and inactive are the calls of the source. Calls follow the shape of the dose curve; as a rule, active = well fitted cell-killing curve with a large enough effect; inconclusive = small, poorly fitted or top-dose-only effect, or effect the other way; inactive = no such curve, though single readings can be large or run the other way.
Would you mind answering with one of these outcomes? active, inactive

Worked examples follow.
Compound: C=C(C(=O)O)C1CC(O)C2(C)CCCC(C)(O)C2C1 (stereo not given)
Class Assignment: inactive
//
Compound: COc1ccc(S(=O)(=O)Nc2nnc(CC(C)C)s2)cc1
Class Assignment: inactive
//
Compound: CC1=C(C)C(=O)C(CCCCC#CCCCC#CCO)=C(C)C1=O
Class Assignment: active

Q: Could you please tell me the result logged for Oc1cccc(-c2nc(N3CCOCC3)c3sccc3n2)c1 in this assay?
Result: active

Q: Could you please tell me the result logged for Cc1ccc(-c2c(-c3nn(C)c4ncnc(N5CC[C@H](N6CCCCC6)C5)c34)cnn2C)cc1 in this assay?
Result: inactive

Q: Could you please tell me the result logged for CCCc1ncc(C(=O)O)s1 in this assay?
Result: inactive

Q: Could you please tell me the result logged for CO[C@@H]1[C@@H](O[C@H]2O[C@@H](C)[C@H](O[C@@H]3C[C@](C)(O)[C@H](O)[C@@H](C)O3)[C@@H](N(C)C)[C@@H]2O)[C@@H](CC=O)C[C@@H](C)[C@@H](O[C@H]2CC[C@H](N(C)C)[C@H](C)O2)/C=C/C=C/C[C@@H](C)OC(=O)C[C@H]1O in this assay?
Result: active

Q: Could you please tell me the result logged for CN(C)CC(C)(C)CNc1nn2c(-c3ccccc3)nnc2cc1C1CCC1 in this assay?
Result: active

Q: Could you please tell me the result logged for CCCC(=O)Nc1ccc(OCC(O)CNC(C)C)c(C(C)=O)c1 (stereo not given) in this assay?
Result: inactive

Q: Could you please tell me the result logged for CC(=O)NC(Cc1ccccc1)C(=O)O (stereo not given) in this assay?
Result: inactive

Q: Could you please tell me the result logged for CC(=O)OCC(=O)[C@@]1(O)CC[C@H]2[C@@H]3CCC4=CC(=O)CC[C@]4(C)[C@H]3C(=O)C[C@@]21C in this assay?
Result: inactive

Q: Could you please tell me the result logged for CC(C[N+](C)(C)C)OC(N)=O (stereo not given) in this assay?
Result: inactive

Q: Could you please tell me the result logged for C[C@]12C=C[C@@]3(CCC4[C@](C)(CO)CCC[C@@]4(C)C3CC1)C2 (stereo not given in full) in this assay?
Result: active

Q: Could you please tell me the result logged for Brc1c(NC2=NCCN2)ccc2nccnc12 in this assay?
Result: inactive

Q: Could you please tell me the result logged for C=C1CC2C3(C)C=CC(=O)OC(C)(C)C3CC(OC(C)=O)C2(C)C2C(=O)OC(C)C(=O)C12C (stereo not given) in this assay?
Result: inactive

Q: Could you please tell me the result logged for COc1cc(CO)cc(OC)c1O[C@@H]1O[C@H](CO)[C@@H](O)[C@H](O)[C@H]1O in this assay?
Result: inactive

Q: Could you please tell me the result logged for CC1(C)CC(=O)c2c(C(F)(F)F)nn(-c3ccc(C(N)=O)c(NC4CCC(O)CC4)c3)c2C1 (stereo not given) in this assay?
Result: active

Q: Could you please tell me the result logged for NC(=O)Nc1sc(-c2ccc(F)cc2)cc1C(N)=O in this assay?
Result: active

Q: Could you please tell me the result logged for Cc1cnc(NC(=O)Nc2cc(Br)c(C)cc2OC[C@@H]2CNCCO2)cn1 in this assay?
Result: active

Q: Could you please tell me the result logged for O=C(Nc1cccc2c(=O)cc(-c3nn[nH]n3)oc12)c1ccc(OCCCCc2ccccc2)cc1 in this assay?
Result: inactive
